Give measured selectivity ratio for each item. Keep answers brief.
test: Selectivity index, ratio of CC50 for human HepG2 cells to IC50 for antileishmanial activity against Leishmania infantum MHOM/BR/70/BH46 intracellular amastigotes infected in canine DH82 cells; assay type: toxicity, cell-based; settings: read-out: Ratio CC50/IC50

Examples from the recorded data:
CC1(C)CC[C@]2(C(=O)OCc3cn(Cc4ccccc4F)nn3)CC[C@]3(C)C(=CC[C@@H]4[C@@]5(C)CC[C@H](O)[C@@](C)(COCc6cn(Cc7ccccc7F)nn6)[C@@H]5CC[C@]43C)[C@@H]2C1 | > 178
Cc1ccc(C(=O)Cn2cc(COC[C@@]3(C)[C@@H]4CC[C@]5(C)[C@H](CC=C6[C@@H]7CC(C)(C)CC[C@]7(C(=O)OCc7cn(CC(=O)c8ccc(C)cc8)nn7)CC[C@]65C)[C@@]4(C)CC[C@@H]3O)nn2)cc1 | > 135

Okay, here is my list. What is selectivity ratio for each of these?
1. CC1(C)CC[C@]2(C(=O)OCc3cn(Cc4ccc(F)cc4F)nn3)CC[C@]3(C)C(=CC[C@@H]4[C@@]5(C)CC[C@H](O)[C@@](C)(COCc6cn(Cc7ccc(F)cc7F)nn6)[C@@H]5CC[C@]43C)[C@@H]2C1
2. C#CCOC[C@@]1(C)[C@@H]2CC[C@]3(C)[C@H](CC=C4[C@@H]5CC(C)(C)CC[C@]5(C(=O)OCC#C)CC[C@]43C)[C@@]2(C)CC[C@@H]1O
3. CC1(C)CC[C@]2(C(=O)O)CC[C@]3(C)C(=CC[C@@H]4[C@@]5(C)CC[C@H](O)[C@@](C)(CO)[C@@H]5CC[C@]43C)[C@@H]2C1
4. CC1(C)CC[C@]2(C(=O)OCc3cn(Cc4ccc([N+](=O)[O-])cc4)nn3)CC[C@]3(C)C(=CC[C@@H]4[C@@]5(C)CC[C@H](O)[C@@](C)(COCc6cn(Cc7ccc([N+](=O)[O-])cc7)nn6)[C@@H]5CC[C@]43C)[C@@H]2C1

1: 0.7; 2: 3.7; 3: > 16.2; 4: > 38

====

Give measured selectivity ratio for each item. Keep answers brief.
test: Selectivity index, ratio of CC50 for African green monkey BGM cells to IC50 for antileishmanial activity against Leishmania infantum MHOM/BR/70/BH46 intracellular amastigotes infected in canine DH82 cells; type: toxicity, cell-based; details: read-out: Ratio CC50/IC50

CC1(C)CC[C@]2(C(=O)OCc3cn(Cc4ccccc4F)nn3)CC[C@]3(C)C(=CC[C@@H]4[C@@]5(C)CC[C@H](O)[C@@](C)(COCc6cn(Cc7ccccc7F)nn6)[C@@H]5CC[C@]43C)[C@@H]2C1 | > 178
CC1(C)CC[C@]2(C(=O)O)CC[C@]3(C)C(=CC[C@@H]4[C@@]5(C)CC[C@H](O)[C@@](C)(CO)[C@@H]5CC[C@]43C)[C@@H]2C1 [HEDERAGENIN] | 0.9

Give its selectivity ratio value. Item: CC1(C)CC[C@]2(C(=O)OCc3cn(Cc4ccc([N+](=O)[O-])cc4)nn3)CC[C@]3(C)C(=CC[C@@H]4[C@@]5(C)CC[C@H](O)[C@@](C)(COCc6cn(Cc7ccc([N+](=O)[O-])cc7)nn6)[C@@H]5CC[C@]43C)[C@@H]2C1
> 38
